Numbers sourced from patent US11634425B2.

# experiment: in vivo
# Format: in vivo
# experimental.setup: in vivo; male Beagle dog, IV 0.5 mg/kg
property.name: Vd
Value and unit, in that order.

• CCc1ccc(-c2nn3cccnc3c2C(=O)N[C@H]2N=C(c3ccccc3)c3cccc(F)c3NC2=O)cn1 = 0.47 L/kg

Query string: Which measured Vd value corresponds to O=C(N[C@H]1N=C(c2ccccc2)c2ccccc2NC1=O)c1c(-c2ccccc2F)nn2cccnc12 ?
Result string: 0.92 L/kg

Query string: Lookup Cc1ccc(-c2nn3cccnc3c2C(=O)N[C@H]2N=C(c3ccccc3)c3cccc(F)c3NC2=O)cn1
Result string: 1.3 L/kg

Query string: Lookup Cc1nc2ccc(Cl)nn2c1C(=O)N[C@H]1N=C(c2ccccc2)c2cccc(F)c2NC1=O
Result string: 1.2 L/kg

* * *

# experiment: Cell cytotoxicity (CC50)
# Format: cell-based
# experimental.setup: human; mean of at least two experiments
# Excerpt: Compounds were subjected to RSV plaque reduction assays according to the following protocol. Plaque EC50 and cell toxicity CC50 values are a mean of at least two experiments and figures are rounded to whole units. Plates were scanned and analysed using the Immunospot S6 Macro analyser, which is equipped with BioSpot analysis software for counting immunostained plaques (virospots). […]
property.name: CC50

Example cases with answers are listed next.
• Cc1ccc2nc(-c3cncc(F)c3)c(C(=O)N[C@H]3N=C(c4ccccc4)c4cccc(F)c4NC3=O)n2n1 [Example 102] = > 19.2 µM
• CCc1ccc(-c2nc3ccc(Cl)nn3c2C(=O)N[C@H]2N=C(c3ccccc3)c3cccc(F)c3NC2=O)cn1 [Example 117] = > 25 µM

Query string: Which measured CC50 value corresponds to Cc1ccc2nc(-c3ccccc3F)c(C(=O)N[C@H]3N=C(c4ccccc4)c4cccc(F)c4NC3=O)n2n1 [Example 19] ?
Result string: > 25 µM

Query string: Lookup Cc1ccc2nc(-c3cncc(C(F)(F)F)c3)c(C(=O)N[C@H]3N=C(c4ccccc4)c4ccccc4NC3=O)n2n1 [Example 46]
Result string: > 25 µM

* * *

# experiment: in vivo
# Assay type: in vivo
# experimental.setup: male Beagle dog, 8 h, IV 0.5 mg/kg / PO 3 or 4 mg/kg study
# Method: The pharmacokinetics of compounds were studied in vivo in dogs at doses of 0.5 mg/kg (IV) and 4 mg/kg (PO). Male Beagle dogs were treated with experimental compounds via intravenous administration (n=2; 0.5 mg/kg) or oral administration (n=2; 3 or 4 mg/kg). […] Samples were subsequently thawed, prepared for analysis by protein precipitation with acetonitrile, and analysed by tandem LCMS using electrospray ionisation using a matrix-matched calibration curve. […]
property.name: C 8 h (ng/mL)
Just the number please, in ng/mL, no unit attached.

Example cases with answers are listed next.
• Cc1nc2ccc(Cl)nn2c1C(=O)N[C@H]1N=C(c2ccccc2)c2cccc(F)c2NC1=O [Example 20] = 1581
• CCc1ccc(-c2nn3cccnc3c2C(=O)N[C@H]2N=C(c3ccccc3)c3cccc(F)c3NC2=O)cn1 [Example 55] = 720
• Cc1ccc(-c2nn3cccnc3c2C(=O)N[C@H]2N=C(c3ccccc3)c3cccc(F)c3NC2=O)cn1 [Example 50] = 549

We next turn to a different compound, shown below.
Query string: Which measured C 8 h value corresponds to O=C(N[C@H]1N=C(c2ccccc2)c2ccccc2NC1=O)c1c(-c2ccccc2F)nn2cccnc12 [Example 2] ?
Result string: 968

* * *

# experiment: in vitro
# Type: in vitro ADME
# experimental.setup: microsomes, pH 7.4; rat; 1 μM compound, 0.5 mg/mL protein; read-out: Liver Microsomal Stability t1/2
# Description: Compounds were subjected to the following assays to investigate liver microsomal stability and hepatocyte stability. Microsomal Incubation: Experimental Procedure Pooled liver microsomes were purchased from a reputable commercial supplier and stored at −80° C. prior to use. […] Following protein precipitation, the sample supernatants were combined in cassettes of up to 4 compounds, internal standard added, and samples analysed by LC-MS/MS. […]
property.name: half-life at 1 μM (min)
Just the number please, in min, no unit attached.

• CCc1ccc(-c2nn3cccnc3c2C(=O)N[C@H]2N=C(c3ccccc3)c3ccccc3NC2=O)cn1 = 77

Query string: Which measured half-life at 1 μM value corresponds to CN1CCN(c2ccc3nc(-c4ccccc4F)c(C(=O)N[C@H]4N=C(c5ccccc5)c5cccc(F)c5NC4=O)n3n2)CC1 ?
Result string: 35.7

Query string: Lookup O=C(N[C@H]1N=C(c2ccccc2)c2cccc(F)c2NC1=O)c1c(-c2ccccc2Cl)nn2cccnc12
Result string: 110

Query string: Lookup COc1ccc(-c2nn3cccnc3c2C(=O)N[C@H]2N=C(c3ccccc3)c3ccccc3NC2=O)c(F)c1
Result string: 163

Query string: Lookup CC(C)Nc1ccc(-c2nn3cccnc3c2C(=O)N[C@H]2N=C(c3ccccc3)c3cccc(F)c3NC2=O)cn1
Result string: 70.4

Query string: Lookup Cc1ccc(-c2nn3cccnc3c2C(=O)N[C@H]2N=C(c3ccccc3)c3ccccc3NC2=O)c(F)n1
Result string: 198

* * *

# experiment: in vivo
# Type: in vivo, rat (Sprague Dawley)
# experimental.setup: Sprague Dawley, in vivo; male SD rat, IV 1 mg/kg
Doc: threshold 10 mL/min/kg (exclusive). Items with clearance beneath it return fulfilled; others return not fulfilled.

• O=C(N[C@H]1N=C(c2ccccc2)c2ccccc2NC1=O)c1c(-c2ccccc2F)nn2cccnc12 = fulfilled
• Cc1ccc(-c2nn3cccnc3c2C(=O)N[C@H]2N=C(c3ccccc3)c3cccc(F)c3NC2=O)cn1 = not fulfilled
• O=C(N[C@H]1N=C(c2ccccc2)c2cccc(F)c2NC1=O)c1c(-c2cncc(Cl)c2)nn2cccnc12 = fulfilled

Query string: Determine whether this compound shows clearance lower than 10 mL/min/kg (ties excluded): CCc1ccc(-c2nn3cccnc3c2C(=O)N[C@H]2N=C(c3ccccc3)c3cccc(F)c3NC2=O)c(C)n1
Result string: not fulfilled

Query string: Lookup CCc1ccc(-c2nn3cccnc3c2C(=O)N[C@H]2N=C(c3ccccc3)c3cccc(F)c3NC2=O)cn1
Result string: not fulfilled

* * *

# experiment: in vitro
# Type: in vitro ADME
# experimental.setup: microsomes, pH 7.4; dog; 1 μM compound, 0.5 mg/mL protein; read-out: Liver Microsomal Stability t1/2
# Protocol: Compounds were subjected to the following assays to investigate liver microsomal stability and hepatocyte stability. Microsomal Incubation: Experimental Procedure Pooled liver microsomes were purchased from a reputable commercial supplier and stored at −80° C. prior to use. […] Following protein precipitation, the sample supernatants were combined in cassettes of up to 4 compounds, internal standard added, and samples analysed by LC-MS/MS. […]
// thresholds for half-life at 1 μM classes: interval 1 = under 1 h, interval 2 = from 1 h up to 5 h, interval 3 = 5 h and over

Record excerpt, results attached:
* O=C(N[C@H]1N=C(c2ccccc2)c2cccc(F)c2NC1=O)c1c(-c2cccc(F)c2F)nn2cccnc12 | interval 3
* O=C(N[C@H]1N=C(c2ccccc2)c2cccc(F)c2NC1=O)c1c(-c2ccccc2F)nc2cccnn12 | interval 3
* O=C(N[C@H]1N=C(c2ccccc2)c2ccccc2NC1=O)c1c(-c2ccc(C3CC3)nc2)nn2cccnc12 | interval 2
* O=C(N[C@H]1N=C(c2ccccc2)c2cccc(F)c2NC1=O)c1c(-c2cc(F)ccc2F)nn2cccnc12 | interval 2
* O=C(N[C@H]1N=C(c2ccccc2)c2cccc(F)c2NC1=O)c1c(-c2ccccc2)nc2cccnn12 | interval 2

Query string: Categorize the following entry: O=C(N[C@H]1N=C(c2ccccc2)c2ccccc2NC1=O)c1c(-c2cccc(F)c2F)nn2cccnc12
Result string: interval 1

Query string: Lookup O=C(N[C@H]1N=C(c2ccccc2)c2ccccc2NC1=O)c1c(-c2ccccc2F)nn2ccc(N3CCOCC3)nc12
Result string: interval 1

* * *

Here, each record is paired with measured half-life at 1 μM data.
# experiment: in vitro
# Format: in vitro ADME
# experimental.setup: microsomes, pH 7.4; human; 1 μM compound, 0.5 mg/mL protein; read-out: Liver Microsomal Stability t1/2
Just the number please, in h, no unit attached.

Example cases with answers are listed next.
• Cc1nc2ccc(Cl)nn2c1C(=O)N[C@H]1N=C(c2ccccc2)c2ccccc2NC1=O = 2.15
• CN1CCN(c2ccc3nc(-c4ccccc4F)c(C(=O)N[C@H]4N=C(c5ccccc5)c5cccc(F)c5NC4=O)n3n2)CC1 = 0.948
• Cc1ccc2nc(-c3ccc(F)cn3)c(C(=O)N[C@H]3N=C(c4ccccc4)c4cccc(F)c4NC3=O)n2n1 = 3.83
• O=C(N[C@H]1N=C(c2ccccc2)c2ccccc2NC1=O)c1c(-c2ccc(NC3CC3)nc2F)nn2cccnc12 = 14.8

Query string: Which measured half-life at 1 μM value corresponds to O=C(N[C@H]1N=C(c2ccccc2)c2ccccc2NC1=O)c1c(-c2ccccc2)nn2cccnc12 ?
Result string: 4.4

* * *

# experiment: in vitro
# Type: in vitro ADME
# experimental.setup: microsomes, pH 7.4; human; 1 μM compound, 0.5 mg/mL protein; read-out: Liver Microsomal Stability t1/2
Doc: threshold 10 h (exclusive). Items with half-life at 1 μM beneath it return Yes; others return No.

- O=C(N[C@H]1N=C(c2ccccc2)c2cccc(F)c2NC1=O)c1c(-c2cnc3[nH]ccc3c2)nn2cccnc12: No

Query string: Determine whether this compound shows half-life at 1 μM lower than 10 h (ties excluded): CCc1ccc(-c2nn3cccnc3c2C(=O)N[C@H]2N=C(c3ccccc3)c3cccc(F)c3NC2=O)cn1
Result string: Yes

Query string: Lookup O=C(N[C@H]1N=C(c2ccccc2)c2cccc(F)c2NC1=O)c1c(-c2cc(F)ccc2F)nn2cccnc12
Result string: No

Query string: Lookup Cc1ccc2nc(-c3ccncc3F)c(C(=O)N[C@H]3N=C(c4ccccc4)c4cccc(F)c4NC3=O)n2n1
Result string: No

Query string: Lookup O=C(N[C@H]1N=C(c2ccccc2)c2cccc(F)c2NC1=O)c1c(-c2ccc(C3CC3)nc2)nn2cccnc12
Result string: Yes

Query string: Lookup O=C(N[C@H]1N=C(c2ccccc2)c2cccc(F)c2NC1=O)c1c(-c2ccccc2)nc2cccnn12
Result string: Yes

Query string: Lookup CC(C)Nc1ccc(-c2nn3cccnc3c2C(=O)N[C@H]2N=C(c3ccccc3)c3ccccc3NC2=O)c(F)n1
Result string: Yes
